sequences and their reported folding stability dG unfold
assay: folding stability dG unfold (combined trypsin and chymotrypsin); higher = more stable
Please state the figure in kcal/mol; there is no need to write the unit.

Please review the following examples before continuing.
SAGGSAGGSAGMKTITKKVKSEEEAKKLAEELKKKGYKVEVEVKKDPKTGNYIVTITIELPESAGGSAGGSA [r18_455_JUSTAS]
3.91
SAGGSAGGSAPGKHKTIEINGPGDVEEAVDYAKDEMPPGKPIHIRFNDEPITIPAEDAKKISAGGSAGGSAG [r3_50_TrROS]
-0.0642
SAGGSAGGMLLSSEEELEEELKRVREEGIGEVEVQVVDEKGNIHTLPTFVENPGPEPLPNEKLLSAGGSAGG [r6_258_JUSTAS]
0.628
SAGGSAGGEVKIEVNKEKGYLLITVPKEEAEEIAKALKEKFGIKEVKIEVDEETDEVHILVKLESAGGSAGG [r6_661_TrROS_Hall]
2.59
SAGGSAPPPKWIMFKIEATMPPNDLDNVVEELLKILFGFKIKNIEVEWEQVKDGYYKVPVWVMIRFSAGGSA [r15_138_TrROS]
4.12
SKPDPVKIEIEQERNPNGQPQHTIKIQDKGKDRKFPIHNMSIDEFDPDDPYIKIRSPGNGQSHTIPPDDLSA [r9_1186_TrROS]
0.832

## Input Entry under review: SAGGSAGGSAGKVKVKVESNPDGTLIIAEEFEDFVVIVELKVDDDGIHFHPHPVVLSKELSAGGSAGGSAGG [r17_72_TrMRF] . Reported folding stability dG unfold?
## Output -0.695

* * *

experiment: folding stability dG unfold (combined trypsin and chymotrypsin); higher = more stable
Tag: T if measured folding stability dG unfold is not below 2 kcal/mol, F if it is.

SAGGSAGGSASLVVVTTKPPNGPETVELTTDYPPDVRRVTTDPKTGATSEVVVLPADAVLPSAGGSAGGSAG [r3_356_JUSTAS]
F

## Input Quick check: does SAGEEIERLLKEIEEAVRKAYPDKVVKVDLVKVELRPVLVVDPGTPRIEERTEIFLEVKVTVTHPDELSAGG [r19_293_TrMRF] have folding stability dG unfold greater than or equal to 2 kcal/mol?
## Output T

## Input Now this one: SAGGSAGGSAGTLTLRVQLFDEDGRLVAEREVELEVELPPPPPVELEFDEETRELRRRRLSAGGSAGGSAGG [r17_348_TrROS_Hall]
## Output F

## Input Now this one: SAGGSAGGSAKEKYILLKVKPGQKVEIEYENGEKKEVEVLEDGYLLIKVKEKNAKIKIKIKSAGGSAGGSAG [r3_334_TrROS_Hall]
## Output T

## Input Now this one: SGGMVNATVTVTLPLPDLPPVTLTVTITEEATPEEAEARKKALAAELEAELRAAAADAALPAPALTSALLSA [r9_626_JUSTAS]
## Output F

## Input Now this one: SAGGSAGGSVKVYTIEFLGDGKPYLLSIDDNGNFVIYVPNPKNIDAVKKAIPSNYKIVEIKPLSAGGSAGGS [r12_9_TrMRF]
## Output F

* * *

experiment: folding stability dG unfold from trypsin proteolysis; higher = more stable
sequences and their reported folding stability dG unfold
Please state the figure in kJ/mol; there is no need to write the unit.

SAGGSAFKELLKEIKEQLQQAPPGEQVEVPIPFPDGYPLRIEINPDENKIEVEYPNGEEEEFDIPPSAGGSA [r15_977_TrROS]
0.557
SAGGSARWFLIRIEFVFGGEPRTFSVLIDVDPGEIEIEIPPELQKKGFQIKDIEIWPLPPEDLKKLSAGGSA [r15_853_TrROS]
9.28
SAGGSPGSSLIGKKKLTIKVDNKDVEVEVTTSLSFLPSNQVTTSTEVKITLPNGKKIPKSLVEKLLSAGGSA [r2_363_JUSTAS]
2.98

Note: attention shifts to another entry.
## Input Entry under review: SAGGMVIVIKTPGGASELEIGDLTITTNPDTGLRVAEATPEQIEELLKADALKDIEEIEVLPIEELLSAGGS [r8_493_TrMRF] . Reported folding stability dG unfold?
## Output 1.7

* * *

experiment: folding stability dG unfold from trypsin proteolysis; higher = more stable
sequences and their reported folding stability dG unfold
Please state the figure in kcal/mol; there is no need to write the unit.

Please review the following examples before continuing.
SAGGSKIKIVEVKKNEDGTVTVKVEVEINGKKYTIEARFETLEDGKKVMTLRITNENGEEIEIVLPSAGGSA [r2_376_TrROS_Hall]
3.45
SAGGSAGGSAGGSAMTLLSEEELPDGSRRVLMRFPDGTRMELTVHPDGSVEERVTPPAASAGGSAGGSAGGS [r4_483_JUSTAS]
2.28
SAGGSALRIPPGEKIKVRNPDNGKPFEFKVTNWQMNPNGNAYFQVEMTSDGKKVKWPIPLDDIEVVSAGGSA [r15_62_TrROS]
-0.397

## Input Entry under review: SAGGSASLEEVASLPASALAAAAGLTALSVEVTREPDGTVTVTIETRPPDGPVVTVTYTFPVDPAASAGGSA [r15_805_JUSTAS] . Reported folding stability dG unfold?
## Output 0.848

* * *

assay: folding stability dG unfold from chymotrypsin proteolysis; higher = more stable
result_type: folding stability dG unfold

Please review the following examples before continuing.
SKIKIEEVPEGEEVEIEIPETKKTITIVKKDDYLIIKVKDKKTGEEKEIVIKVPPENIEEVLKKIEELLKSA [r9_982_TrROS_Hall]
2.34 kcal/mol
SAGGSAGGSAGGPPNKKFILRIEHPGRPITFPFKSPKGLDEAADKFPDKFGMPPKIEVHPSAGGSAGGSAGG [r7_18_TrROS]
-0.795 kcal/mol
SAGGSAKLIVADVSPLPDGGFAVNVTFVGENGEPVAVKPFYAGSPEELLAALKKFAEENGYEVVVASAGGSA [r15_242_TrMRF]
4.57 kcal/mol
SAGGSAGGMVVRVTLPDGTVVTFEFESEEEFRKEFAASLGLAPDEIPEERIVSVERLSPEEYRSSAGGSAGG [r6_588_JUSTAS]
1.64 kcal/mol

## Input Entry under review: SAGGSAGGSAGSVTLPKNQVGVSVESYEVTLPDETGESVTRYKITLRFAETGLSAEFYAGSAGGSAGGSAGG [r17_266_TrMRF] . Reported folding stability dG unfold?
## Output 1.34 kcal/mol

## Input Now this one: SAGGSAGGSAGKIPEIIKKTNAVEKDGKIFLGIKTDGKYYLIELEKKTLKIKKIEPFPDKSAGGSAGGSAGG [r11_808_TrMRF]
## Output 0.776 kcal/mol

## Input Now this one: SAGGSAGGSAMTPETIKEKYPNVDYSPSPLGGKTVYTFTFPSGSTVTVTFNPGSATITTIAGSAGGSAGGSA [r18_13_JUSTAS]
## Output 3.38 kcal/mol

* * *

sequences and their reported folding stability dG unfold
assay: folding stability dG unfold (combined trypsin and chymotrypsin); higher = more stable
Please state the figure in kcal/mol; there is no need to write the unit.

EEIIEKLKEEGYEIVSVSIKEVNGKKKIFIAVRRKDKPEYLLVEIDLENKEVKIKKVKKFPKGESIEDILSS [r1_383_TrROS_Hall]
3.56
SIEIYEGPEEAEEMAEENGTPVIPIPPDMNLSEILKQLKNQPGLPPDQKIVIVIQWEPGQWYVIRIPIKPSA [r9_314_TrROS]
2.53
SAGMPAGDFEPVKVEYTIKIPILNEGGGAAAPMPIKVKVEVYRMPNGNLFIKFEIEIPGGNKIEFWFPISAG [r5_580_TrROS]
3.99

Note: attention shifts to another entry.
## Input Entry under review: SAGGSAGGNVLIPKSKLEEFLKNIPFEVLVLNPENPRLEIARVEADDIFVDDDYALILLTVSNDSAGGSAGG [r6_753_TrMRF] . Reported folding stability dG unfold?
## Output 0.742

* * *

assay: folding stability dG unfold (combined trypsin and chymotrypsin); higher = more stable
Tag: MET if measured folding stability dG unfold is not below 1 kcal/mol, NOT MET if it is.

Solved cases below.
SAGGSAGGSEEFVILEIPFERKFVVKDPEGGEEREFEFRPVIPLVLPPELAEKLLKSPYLQKKSAGGSAGGS [r12_1015_TrMRF]
NOT MET
SAGGSAGGSAGEIEIEFEPGEEFLDFIKNLPGPIESIEIEPIDPDKVRARLKLNIPEDLASAGGSAGGSAGG [r11_143_TrMRF]
NOT MET
SAGGMKIIEIEDRGPGKFAGPETVLEALRKALPGIPIEVLDYDPEKHVIRIRVPEEAVPRIVEAFKSSAGGS [r8_235_TrMRF]
MET
SAGGPKEIIKEIAEKYGITEIMPWDDMKNMPPENPNKIHIWPDPEGHYMVMIRAPNGNKKSIEFPIESAGGS [r16_686_TrROS]
NOT MET
SAGGKYKIEIEITEIKEKEDGTKEITIKIKIYDEETGELIYTITVKMRIDKKTNKIIIEEVKIEKLPPSAGG [r13_596_TrROS_Hall]
MET
SAGGSAGGSAGKDKGQKEVPEINIRIEPVNFHWEYDKGNGKPKSIHFMFKIRYPNGREITSAGGSAGGSAGG [r11_890_TrROS]
MET
SAGMPADTFIELNITITVPSEEYEADPAAVKAAADAAIAAAKAAGLPVDAATFTFERVPPVDPNNPRVGSAG [r5_979_JUSTAS]
NOT MET
SAGGSAGGSAGGSKYEIEILKIEELEDDSYRITAKINIPEAGTTEEITLTVPKGVELKLSAGGSAGGSAGGS [r4_133_TrMRF]
MET

## Input Quick check: does SAMVSVTELPDGGVLATFPLPDGHPATAVFDPADLKPSVAYFPNGLRAVLRVTPDGRVELLAVEDVPPASAG [r14_877_TrMRF] have folding stability dG unfold greater than or equal to 1 kcal/mol?
## Output NOT MET

## Input Now this one: SAGGSAGGSAGGKKTINVEIVKIEVTKNKKTNEYTVKIYIKDTGKTITLTVKPGDIIKISAGGSAGGSAGGS [r10_819_TrROS_Hall]
## Output MET

## Input Now this one: SAGGSAGSSSVSTVTPVGDYVVVTVNAPEGSVVTITDPATGTTETRAAPAGATFTVPPNASVSVTNSAGGSA [r15_418_JUSTAS]
## Output NOT MET

## Input Now this one: SAGGSSMRKLIIIGPEGVTLERPIGPERTVEDVKAEWEAIGNVKFEEYPETGEVVVYLPEEALKEKSAGGSA [r2_164_JUSTAS]
## Output MET

## Input Now this one: SAGGMDVKVEVKEVELPEAKVTITKITTPDGSTSTITYDPETGTADVTTTTPTSTTTTTLPKSEIKPLSAGG [r13_328_JUSTAS]
## Output NOT MET

## Input Now this one: SAGGSAGGSAPKILIVEDEKTGKLYAFVYDKDTKELYVAEFTYDKKTKKLTVKIKKVSLEDLSAGGSAGGSA [r18_505_TrROS_Hall]
## Output MET
